# SUBJECT OF TEST: human PD-L1 (human) (UniProt Q9NZQ7)
# Sequence (Q9NZQ7 19-290): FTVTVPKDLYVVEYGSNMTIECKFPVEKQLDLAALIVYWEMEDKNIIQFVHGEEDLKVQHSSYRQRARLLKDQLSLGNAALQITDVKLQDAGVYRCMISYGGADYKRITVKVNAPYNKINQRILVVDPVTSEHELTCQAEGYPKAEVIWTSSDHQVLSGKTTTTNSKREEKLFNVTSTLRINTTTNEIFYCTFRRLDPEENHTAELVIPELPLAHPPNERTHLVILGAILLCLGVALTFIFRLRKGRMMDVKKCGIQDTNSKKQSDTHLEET
# TEST DETAILS: flow cytometry, MFI on PD-L1 over MFI on CD28
# key: entry, value: Ratio of PDL1:CD28
// return a plain number; no unit text

Check out these entries, answers already filled in.
BINDER	RESULT
CD80 H18Y/E35D/V68M/T79M/L85M IgV-Fc (Fc fusion) VIHVTKEVKEVATLSCGYNVSVEELAQTRIYWQKDKKMVLTMMSGDMNIWPEYKNRTIFDITNNLSIMILALRPSDEGMYECVVMKYEKDAFKREHLAEVTLSVKAD	14.3
CD80 E35D/M47L/Y53F/V68M/A71G/K93R/E95V IgV-Fc (Fc fusion) VIHVTKEVKEVATLSCGHNVSVEELAQTRIYWQKDKKMVLTMMSGDLNIWPEFKNRTIFDITNNLSIMILGLRPSDEGTYECVVLKYEKDAFRRVHLAEVTLSVKAD	65.3

Turning now to a further record.
State the recorded Ratio of PDL1:CD28 for this entry: CD80 E35D/M47V/N48K/V68M/A71G/L85M IgV-Fc (Fc fusion) VIHVTKEVKEVATLSCGHNVSVEELAQTRIYWQKDKKMVLTMMSGDVKIWPEYKNRTIFDITNNLSIMILGLRPSDEGTYECVVMKYEKDAFKREHLAEVTLSVKAD 75.4
